- TEST SYSTEM: Aurora B kinase (Homo sapiens, UniProt Q96GD4)
- Construct: purchased Cell signaling
- Sequence (Q96GD4 whole entry): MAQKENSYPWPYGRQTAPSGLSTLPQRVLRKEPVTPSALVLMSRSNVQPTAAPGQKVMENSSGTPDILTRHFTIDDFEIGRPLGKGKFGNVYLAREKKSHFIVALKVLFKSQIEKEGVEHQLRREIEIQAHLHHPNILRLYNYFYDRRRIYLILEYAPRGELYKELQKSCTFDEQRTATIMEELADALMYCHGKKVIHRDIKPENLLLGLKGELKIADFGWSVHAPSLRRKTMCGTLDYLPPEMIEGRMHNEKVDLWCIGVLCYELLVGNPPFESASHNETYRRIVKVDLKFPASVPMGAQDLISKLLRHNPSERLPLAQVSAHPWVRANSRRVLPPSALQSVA
- EXPERIMENTAL DETAILS: Aurora B kinase assay ([γ-33P]ATP, CHOCKtide substrate)
- Format: biochemical
- EXPERIMENTAL CONDITIONS: 1.0 μM test compound
EXPERIMENTAL READOUT: inhibition at 1 µM (%)

# annotated cases, reported inhibition at 1 µM shown
{"SMILES NOTATION": "O=C(O)CCc1c(C=C2C(=S)Nc3ccccc32)[nH]c2c1C(=O)CCC2", "inhibition at 1 µM [%]": 17.9}
{"SMILES NOTATION": "CCOC(=O)CCc1c(/C=C2\\C(=O)Nc3ccc(NS(=O)(=O)c4ccccc4)cc32)[nH]c2c1C(=O)CCC2", "inhibition at 1 µM [%]": 74.3}
{"SMILES NOTATION": "CCN(CC)CCNC(=O)CCc1c(/C=C2\\C(=O)Nc3ccc(S(=O)(=O)Cc4c(Cl)cccc4Cl)cc32)[nH]c(C)c1C(C)=O", "inhibition at 1 µM [%]": 6.3}
{"SMILES NOTATION": "CCOC(=O)CCc1c(/C=C2\\C(=O)Nc3ccc([N+](=O)[O-])cc32)[nH]c2c1C(=O)CCC2", "inhibition at 1 µM [%]": -4.1}
{"SMILES NOTATION": "CNC(=O)CCc1c(/C=C2\\C(=O)Nc3ccc(S(=O)(=O)Cc4c(Cl)cccc4Cl)cc32)[nH]c2c1C(=O)CCC2", "inhibition at 1 µM [%]": 6.9}

1: CCOC(=O)CCc1c(/C=C2\C(=O)Nc3cc(F)ccc32)[nH]c2c1C(=O)CCC2
2: CCOC(=O)CCc1c(/C=C2\C(=O)Nc3cc(-c4ccc(O)cc4)ccc32)[nH]c2c1C(=O)CCCC2
3: CCOC(=O)CCc1c(/C=C2\C(=O)Nc3ccc(/N=C/c4ccsc4)cc32)[nH]c2c1C(=O)CCC2
4: COc1ccc(-c2ccc3c(c2)/C(=C/c2[nH]c4c(c2CCC(=O)O)C(=O)CCC4)C(=O)N3)cc1OC
Thanks in advance: please rank these 4 entries by inhibition at 1 µM, highest to lowest. // respond by listing labels in the order requested 3, 2, 1, 4

1: O=C(O)CCc1c(/C=C2\C(=O)Nc3ccc(F)cc32)[nH]c2c1C(=O)CCC2
2: O=C(O)CCc1c(/C=C2\C(=O)Nc3ccc(NS(=O)(=O)Cc4ccccc4)cc32)[nH]c2c1C(=O)CCC2
3: O=C(O)CCc1c(/C=C2\C(=O)Nc3ccc(S(=O)(=O)N4CCOCC4)cc32)[nH]c2c1C(=O)CCC2
Sort these compounds on inhibition at 1 µM so the largest reading comes first. Give me the labels in the order the question wants. 2, 3, 1
(2: 69.8%, 3: 48.8%, 1: 11.6%)

A: COc1ccc(C(=O)Nc2ccc3c(c2)/C(=C/c2[nH]c4c(c2CCC(=O)O)C(=O)CCC4)C(=O)N3)cc1
B: O=C(O)CCc1c(/C=C2\C(=O)Nc3ccc(S(=O)(=O)Cc4ccc(F)cc4)cc32)[nH]c2c1C(=O)CCC2
Please indicate which has the smaller reported inhibition at 1 µM: A , or B . Respond with the label that goes with your answer. A
(A: 9.1%, B: 15.5%)
